Data origin, for the record: PubChem BioAssay (NCI)

System: DU-145 prostate
Assay: NCI-60 one-dose screen, 48 h
Settings: 10 µM
This is part of a sample that, as a whole, favours compounds with a hit. Of some 83,000 tested, about 20% had one in any assay. Calls of active or inactive are those of the source. The calls were made as follows: active = growth percent below 10; inactive = the rest.
Labels: true (active), false (inactive)

In [3]: df
Out[3]:
                                    molecule  answer_label
 0  CCOC(=O)c1sc(NC(=O)c2cc(OC)c(OC)c(OC)c2)nc1C         false
 1  CCc1ccc(-c2nnc(COc3ccc(-c4nc5ccccc5[nH]4)cc3OC)o2)cc1         false
 2                     O=C(O)CCCCSCCCCC(=O)O         false
 3  O=C(NNC(=O)c1ccncc1)Nc1ccc([N+](=O)[O-])cc1         false
 4  CC1=CC2OC34COC3CC(OC(=O)C(F)(F)F)C4(C)C2(C)CC1 (configuration not stated)         false
 5  CC(C)CCN(CCCNc1c2c(nc3cc(Cl)ccc13)CCCC2)CCC(C)C         false
 6  O=c1cc(CSc2nnc(-c3ccccc3)n2-c2ccc(F)cc2)c2ccc3ccccc3c2o1         false
 7  Nc1ncc(-c2ccc(C(F)(F)F)cc2)c(NC2CCCCCC2)n1         false
 8       CCOC(=O)c1sc(Nc2ncccn2)nc1-c1ccccn1         false
 9                O=C(NCCCl)c1cc(Cl)cc(Cl)c1         false
10  COc1ccc(-c2nc(-c3nc4ccc(OC)cc4[nH]3)c3ccccn23)cc1         false
11  COc1cccc(-c2nnc(COc3ccc(-c4nc5ccccc5[nH]4)cc3OC)o2)c1         false
12    CC(=O)Nc1nc(C)c(C(=O)N/N=C/c2cccn2C)s1         false
13  COc1ccc(-c2cc(=O)n(-c3nc4ccccc4[nH]3)[nH]2)cc1OC         false
14  O=C(Nc1ccc(OCc2nnc(-c3ccccc3)o2)c(F)c1)Nc1ccc(Cl)c(Cl)c1         false
15  COc1ccc(-c2cc(/C=C/C(=O)c3ccc(N)cc3)[nH]n2)cc1OC         false
16                     Nc1ncncc1-c1ccc(F)cc1         false
17  c1ccc(CC(NCCNC(Cc2ccccc2)c2ccccc2)c2ccccc2)cc1 (configuration not stated)         false
18      S=c1c2ncccc2c(-c2ccccn2)nn1Cc1ccccn1         false
19                   C/C(=N\NC(N)=S)C(C)(C)O         false
20  COc1ccc(-c2cn[nH]c2-c2cc(OC)c(OC)c(OC)c2)cc1          true
21                 COc1ccc(COC(=O)CC(C)C)cc1         false
22         CCSc1nc2c([nH]1)c(=O)n(C)c(=S)n2C         false
23  Cc1ccc(C)c(S(=O)(=O)NC2c3ccccc3Oc3ccccc32)c1         false
24  O=C(OCC1OC(n2cc(C(F)(F)F)c(=O)[nH]c2=O)CC1OC(=O)c1ccc([N+](=O)[O-])cc1)c1ccc([N+](=O)[O-])cc1 (configuration not stated)         false
25  COc1ccc(-c2ccc(-c3ccc(C(=N)N)c(F)c3)s2)cc1          true
26  COc1ccc2oc(=O)cc(C(c3ccc[nH]3)c3ccc[nH]3)c2c1         false
27  FC(F)(F)c1ccc(-c2nc(-c3nc4cc(Cl)c(Cl)cc4[nH]3)c3ccccn23)cc1         false
28   COc1ccc(Nc2nc(NCc3ccccc3)c3ccccc3n2)cc1         false
29  COc1ccc(-c2cc(/C=C3\C(=O)Nc4cc(Cl)ccc43)[nH]n2)cc1         false
30  O=NN(CCCl)C(=O)Nc1ccc(NC(=O)N(CCCl)N=O)cc1         false
31  O=C(NCc1cn(Cc2cccc(Oc3ccccc3)c2)nn1)c1cccnc1Nc1ccccc1         false
32  COc1ccc(/C=C2\SC(=S)N(CCCN3CCOCC3)C2=O)c(OC)c1         false
33  NC1CCC(Nc2nc(NCc3cc(Cl)ccc3O)c3ncn(C4CCCC4)c3n2)CC1 (configuration not stated)          true
34  CNC(=O)c1cc(Oc2ccc(NC(=O)Nc3ccc(Cl)c(OC4CCCCC4)c3)c(F)c2)ccn1         false
35  CCN(CC)CCOC(=O)c1ccc(N=Nc2ccc(O)c(OC)c2)cc1         false
36  COc1ccc(-c2csc(NC(=O)CO[N+](=O)[O-])n2)cc1         false
